- Test system: A375 cells
- test.name: Inhibition of cancer cell growth, MTT assay, A375
- Type: cell-based
- conditions.used: Homo sapiens, A-375, 72 h exposure
pIC50: −log10 of the molar value.
Reported values of pIC50 for individual entries
quantity.name: pIC50

1) O=C(Nc1cc(F)c(F)c(C(=O)c2ccc3nccnc3c2)c1F)c1ccc(Cl)c(C(F)(F)F)c1 [Compound C140]; < 5.30
2) O=C(Nc1cc(F)cc(C(=O)c2ccc3ncc(N4CCOCC4)nc3c2)c1)c1cccc(F)c1 [Compound C142]; 5.30 to 6.00
3) O=C(Nc1cccc(F)c1)Nc1cc(F)cc(C(=O)c2ccc3ncc(N4CCOCC4)nc3c2)c1 [Compound C037]; 5.30 to 6.00
4) O=C(Nc1ccc(F)c(C(=O)c2ccc3ncc(N4CCOCC4)nc3c2)c1)c1cccc(C(F)(F)F)c1 [Compound C141]; > 6.00
5) O=C(Nc1cc(F)cc(C(=O)c2ccc3ncc(N4CCOCC4)nc3c2)c1)Nc1ccc(Cl)c(F)c1 [Compound C051]; 5.30 to 6.00
6) O=C(Nc1cccc(C(=O)c2ccc3nccnc3c2)c1)Nc1ccc(Cl)c(C(F)(F)F)c1 [Compound C004]; 5.30 to 6.00
7) O=C(Nc1cc(F)c(F)c(C(=O)c2ccc3nccnc3c2)c1)c1cccc(F)c1 [Compound C131]; < 5.30
8) O=C(Nc1cccc(C(=O)c2ccc3ncc(N4CCCC4)nc3c2)c1)c1cccc(F)c1 [Compound C121]; > 6.00
9) O=C(Nc1cccc(C(=O)c2ccc3ncc(N4CCOCC4)nc3c2)c1)Nc1cccc(C(F)(F)F)c1 [Compound C017]; > 6.00
10) O=C(Nc1cc(F)cc(C(=O)c2ccc3nccnc3c2)c1)Nc1ccc(F)c(F)c1 [Compound C065]; < 5.30
11) Cn1cc(-c2cnc3ccc(C(=O)c4cccc(NC(=O)Nc5ccc(Cl)c(C(F)(F)F)c5)c4)cc3n2)cn1 [Compound C028]; > 6.00
12) O=C(Nc1ccc(Cl)cc1)Nc1cc(F)cc(C(=O)c2ccc3nccnc3c2)c1 [Compound C063]; 5.30 to 6.00
13) COc1cnc2ccc(C(=O)c3cc(NC(=O)Nc4cccc(F)c4)ccc3F)cc2n1 [Compound C083]; 5.30 to 6.00
14) O=C(Nc1cc(F)c(F)c(C(=O)c2ccc3ncc(N4CCOCC4)nc3c2)c1)c1cccc(C(F)(F)F)c1 [Compound C145]; > 6.00
15) O=C(Nc1cc(F)c(F)c(C(=O)c2ccc3ncc(N4CCOCC4)nc3c2)c1F)c1cccc(C(F)(F)F)c1 [Compound C138]; 5.30 to 6.00

* * *

- target: BRAF V600E (Homo sapiens (Human), UniProt P15056, V600E)
- Sequence (P15056 whole entry V600E): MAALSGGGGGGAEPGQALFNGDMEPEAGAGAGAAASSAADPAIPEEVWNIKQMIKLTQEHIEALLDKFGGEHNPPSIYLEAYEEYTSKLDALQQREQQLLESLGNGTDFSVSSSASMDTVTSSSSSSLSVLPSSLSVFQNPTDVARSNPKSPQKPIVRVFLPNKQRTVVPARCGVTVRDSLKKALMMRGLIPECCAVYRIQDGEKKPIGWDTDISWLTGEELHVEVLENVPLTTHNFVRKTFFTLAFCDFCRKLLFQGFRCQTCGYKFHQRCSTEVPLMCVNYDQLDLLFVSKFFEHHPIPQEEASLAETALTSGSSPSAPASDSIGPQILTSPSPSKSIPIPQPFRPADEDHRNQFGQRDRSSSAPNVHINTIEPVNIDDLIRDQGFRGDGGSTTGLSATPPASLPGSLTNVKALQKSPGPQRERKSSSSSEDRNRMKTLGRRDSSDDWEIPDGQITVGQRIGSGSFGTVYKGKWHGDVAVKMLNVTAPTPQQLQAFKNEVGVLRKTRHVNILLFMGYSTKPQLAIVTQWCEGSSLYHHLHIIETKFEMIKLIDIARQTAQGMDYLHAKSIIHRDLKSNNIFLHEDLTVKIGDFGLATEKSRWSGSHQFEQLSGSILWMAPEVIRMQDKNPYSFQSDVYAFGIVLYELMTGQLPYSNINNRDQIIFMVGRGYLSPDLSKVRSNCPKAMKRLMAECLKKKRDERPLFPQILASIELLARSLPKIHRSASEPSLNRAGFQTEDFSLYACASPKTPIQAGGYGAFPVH
- test.name: Z′-LYTE kinase inhibition assay (Invitrogen), BRAF V600E
- Format: biochemical
- conditions.used: 1 μM compound, Z′-LYTE method; read-out: % inhibition at 1 μM against BRAF V600E
- Description: Inhibitory activities Inhibitory activities of compounds against BRAF, and BRAF V600E were measured by Invitrogen using Z′-LYTE® Method as briefly described in the following. 4× Test compounds are dissolved in 1% DMSO. […] Fluorescence was read by plate reader. IC50 was calculated by plotting the concentration of compound vs the percentage of inhibition in treated wells using GraphPad Prism 5. […]
quantity.name: inhibition at 1 µM

1. O=C(Nc1ccc(F)c(F)c1)Nc1ccc(F)c(C(=O)c2ccc3nccnc3c2)c1 [Compound C071]; > 89%
2. O=C(Nc1ccc(F)cc1)Nc1ccc(F)c(C(=O)c2ccc3ncc(N4CCOCC4)nc3c2)c1 [Compound C053]; > 89%
3. O=C(Nc1cccc(C(=O)c2ccc3ncc(-c4cn[nH]c4)nc3c2)c1)c1ccc(Cl)c(C(F)(F)F)c1 [Compound C133]; 70 to 89%
4. O=C(Nc1cc(F)c(F)c(C(=O)c2ccc3nccnc3c2)c1)Nc1ccc(Cl)c(C(F)(F)F)c1 [Compound C023]; 70 to 89%
5. O=C(Nc1cc(F)cc(C(=O)c2ccc3ncc(N4CCOCC4)nc3c2)c1)c1ccc(Cl)c(C(F)(F)F)c1 [Compound C135]; 70 to 89%
6. O=C(Nc1ccc(Cl)c(F)c1)Nc1ccc(F)c(C(=O)c2ccc3nccnc3c2)c1 [Compound C077]; > 89%
7. O=C(Nc1cc(F)cc(F)c1)Nc1cc(F)cc(C(=O)c2ccc3ncc(N4CCOCC4)nc3c2)c1 [Compound C093]; > 89%

* * *

- target: KDR (VEGFR2) (Homo sapiens (Human), UniProt P35968)
- Sequence (P35968 20-1356): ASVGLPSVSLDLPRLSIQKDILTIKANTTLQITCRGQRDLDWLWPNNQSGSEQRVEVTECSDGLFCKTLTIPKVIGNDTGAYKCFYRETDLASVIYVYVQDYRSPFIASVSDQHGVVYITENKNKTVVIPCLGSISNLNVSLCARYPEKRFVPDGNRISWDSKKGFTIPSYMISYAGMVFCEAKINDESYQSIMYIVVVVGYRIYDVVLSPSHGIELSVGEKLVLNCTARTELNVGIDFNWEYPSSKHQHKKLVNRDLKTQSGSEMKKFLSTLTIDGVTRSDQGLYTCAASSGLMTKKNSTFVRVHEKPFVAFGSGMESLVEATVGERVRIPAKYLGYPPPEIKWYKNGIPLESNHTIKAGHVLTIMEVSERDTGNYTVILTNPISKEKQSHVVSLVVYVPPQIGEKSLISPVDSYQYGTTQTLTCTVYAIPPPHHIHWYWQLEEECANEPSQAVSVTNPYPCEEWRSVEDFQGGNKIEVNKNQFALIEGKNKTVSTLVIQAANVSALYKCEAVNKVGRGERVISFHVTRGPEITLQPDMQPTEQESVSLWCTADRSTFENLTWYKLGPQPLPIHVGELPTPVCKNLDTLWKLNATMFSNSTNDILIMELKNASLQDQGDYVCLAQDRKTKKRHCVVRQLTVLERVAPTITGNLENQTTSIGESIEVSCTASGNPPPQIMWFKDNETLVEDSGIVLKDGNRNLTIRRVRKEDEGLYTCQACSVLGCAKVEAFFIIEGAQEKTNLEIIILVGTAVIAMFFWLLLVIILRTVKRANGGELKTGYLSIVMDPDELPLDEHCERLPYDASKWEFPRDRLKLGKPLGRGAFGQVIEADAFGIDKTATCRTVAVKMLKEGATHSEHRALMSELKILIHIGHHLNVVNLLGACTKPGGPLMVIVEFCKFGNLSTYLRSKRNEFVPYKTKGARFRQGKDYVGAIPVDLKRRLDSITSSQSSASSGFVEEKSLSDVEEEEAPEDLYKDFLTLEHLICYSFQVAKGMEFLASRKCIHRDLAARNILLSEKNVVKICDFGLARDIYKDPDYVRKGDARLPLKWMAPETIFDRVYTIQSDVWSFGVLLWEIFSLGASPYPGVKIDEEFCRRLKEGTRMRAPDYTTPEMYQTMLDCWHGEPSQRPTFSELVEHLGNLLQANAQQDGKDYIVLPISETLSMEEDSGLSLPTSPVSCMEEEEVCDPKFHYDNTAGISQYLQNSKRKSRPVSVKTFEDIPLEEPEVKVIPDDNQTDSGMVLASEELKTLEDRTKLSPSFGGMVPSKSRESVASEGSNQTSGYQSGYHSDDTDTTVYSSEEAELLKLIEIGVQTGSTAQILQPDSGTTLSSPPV
- test.name: Z′-LYTE kinase inhibition assay (Invitrogen), KDR
- Format: biochemical
- conditions.used: 1 μM compound, Z′-LYTE method; read-out: % inhibition at 1 μM against KDR
quantity.name: inhibition at 1 µM

1) O=C(Nc1ccc(F)cc1)Nc1cc(F)cc(C(=O)c2ccc3ncc(N4CCOCC4)nc3c2)c1; < 70%
2) O=C(Nc1ccc(F)cc1)Nc1cc(F)c(F)c(C(=O)c2ccc3ncc(N4CCOCC4)nc3c2)c1; 70 to 89%
3) O=C(Nc1cc(F)cc(C(=O)c2ccc3ncc(N4CCOCC4)nc3c2)c1)c1cccc(F)c1; 70 to 89%
4) O=C(Nc1cc(F)cc(F)c1)Nc1cc(F)cc(C(=O)c2ccc3ncc(N4CCOCC4)nc3c2)c1; < 70%
5) O=C(Nc1cc(F)c(F)c(C(=O)c2ccc3nccnc3c2)c1F)c1ccc(Cl)c(C(F)(F)F)c1; < 70%
6) O=C(Nc1ccc(F)c(C(=O)c2ccc3nccnc3c2)c1Cl)c1ccc(Cl)c(C(F)(F)F)c1; < 70%
7) O=C(Nc1ccc(Cl)cc1)Nc1cc(F)cc(C(=O)c2ccc3nccnc3c2)c1; < 70%

* * *

- target: KDR (VEGFR2) (Homo sapiens (Human), UniProt P35968)
- test.name: Z′-LYTE kinase inhibition assay (Invitrogen), KDR
- Assay type: biochemical
- conditions.used: 1 μM compound, Z′-LYTE method; read-out: % inhibition at 1 μM against KDR
quantity.name: inhibition at 1 µM

1) O=C(Nc1cc(F)c(F)c(C(=O)c2ccc3ncc(N4CCOCC4)nc3c2)c1)c1cccc(F)c1; 70 to 89%
2) O=C(Nc1ccc(F)c(Cl)c1)Nc1ccc(F)c(C(=O)c2ccc3nccnc3c2)c1; > 89%
3) O=C(Nc1cccc(F)c1)Nc1ccc(F)c(C(=O)c2ccc3nccnc3c2)c1F; < 70%
4) O=C(Nc1cc(F)c(F)c(C(=O)c2ccc3ncc(N4CCOCC4)nc3c2)c1)c1cccc(C(F)(F)F)c1; > 89%
5) O=C(Nc1cccc(C(F)(F)F)c1)Nc1cc(F)c(F)c(C(=O)c2ccc3ncc(N4CCOCC4)nc3c2)c1F; < 70%
6) O=C(Nc1ccc(C(F)(F)F)cc1)Nc1ccc(F)c(C(=O)c2ccc3nccnc3c2)c1; < 70%
7) O=C(Nc1ccc(F)c(F)c1)Nc1ccc(F)c(C(=O)c2ccc3nccnc3c2)c1; < 70%
8) O=C(Nc1cccc(F)c1)Nc1cc(F)c(F)c(C(=O)c2ccc3ncc(N4CCOCC4)nc3c2)c1; 70 to 89%
9) O=C(Nc1cc(F)cc(C(=O)c2ccc3nccnc3c2)c1)c1cccc(C(F)(F)F)c1; < 70%
10) O=C(Nc1cccc(C(F)(F)F)c1)Nc1cc(F)c(F)c(C(=O)c2ccc3nccnc3c2)c1F; < 70%
11) O=C(Nc1cc(F)cc(C(=O)c2ccc3nccnc3c2)c1)c1ccc(Cl)c(C(F)(F)F)c1; < 70%
12) O=C(Nc1cc(F)cc(C(=O)c2ccc3nccnc3c2)c1)Nc1ccc(Cl)c(C(F)(F)F)c1; 70 to 89%
13) O=C(Nc1cc(F)cc(C(=O)c2ccc3nccnc3c2)c1)Nc1ccc(F)c(Cl)c1; < 70%
14) O=C(Nc1ccc(F)c(C(=O)c2ccc3ncc(N4CCOCC4)nc3c2)c1)Nc1ccc(Cl)c(C(F)(F)F)c1; > 89%
15) O=C(Nc1cccc(C(=O)c2ccc3ncc(-c4cn[nH]c4)nc3c2)c1)Nc1ccc(Cl)c(C(F)(F)F)c1; > 89%

* * *

- target: BRAF V600E (Homo sapiens (Human), UniProt P15056, V600E)
- test.name: Z′-LYTE kinase inhibition assay (Invitrogen), BRAF V600E
- Type: biochemical
- conditions.used: 1 μM compound, Z′-LYTE method; read-out: % inhibition at 1 μM against BRAF V600E
Reported values of inhibition at 1 µM for individual entries
quantity.name: inhibition at 1 µM

1) O=C(Nc1ccc(F)c(F)c1)Nc1ccc(F)c(C(=O)c2ccc3ncc(N4CCOCC4)nc3c2)c1 [Compound C046]; > 89%
2) O=C(Nc1cc(F)c(F)c(C(=O)c2ccc3ncc(N4CCOCC4)nc3c2)c1F)c1cccc(F)c1 [Compound C137]; 70 to 89%
3) O=C(Nc1cccc(C(=O)c2ccc3ncc(N4CCCC4)nc3c2)c1)c1cccc(F)c1 [Compound C121]; 70 to 89%
4) O=C(Nc1cccc(C(=O)c2ccc3ncc(N4CCCC4)nc3c2)c1)c1ccc(Cl)c(C(F)(F)F)c1 [Compound C123]; 70 to 89%
